Target: T1, Recombinant MBP-mutCALR Type 1 fusion protein (human)
T1 construct: custom made at Cepter; also called recombinant mutCALR protein
Test: SPR, IgG captured, 1:1 fit, Exp. 2
Provide the recorded koff for the entries that follow.
Return type: number; implicit unit s⁻¹.

Incoming: What does the record list as koff for anti-mutCALR antibody clone 75 (antibody, human IgG1, lambda, N297A, V domains shown, human IgG1 N297A variant of clone 6) VH: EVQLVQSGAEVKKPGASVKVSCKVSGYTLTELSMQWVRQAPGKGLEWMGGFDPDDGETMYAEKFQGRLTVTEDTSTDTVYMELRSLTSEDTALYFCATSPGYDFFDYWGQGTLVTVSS VL: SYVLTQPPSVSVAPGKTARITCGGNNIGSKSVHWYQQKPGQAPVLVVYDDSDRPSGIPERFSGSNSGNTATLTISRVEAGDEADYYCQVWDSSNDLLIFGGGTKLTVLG ?
Outgoing: 0.0039

Incoming: Recorded koff for anti-mutCALR antibody clone 62 (antibody, human IgG1, lambda, N297A, V domains shown, human IgG1 N297A variant of clone 6) VH: EVQLVQSGAEVKKPGASVKVSCKVSGYTLTELSMQWVRQAPGKGLEWMGGFDPDSGETMYAEKFQGRLTVTEDTSTDTVYMELSSLRSEDTAVYFCATSPGYDFFDYWGQGTLVTVSS VL: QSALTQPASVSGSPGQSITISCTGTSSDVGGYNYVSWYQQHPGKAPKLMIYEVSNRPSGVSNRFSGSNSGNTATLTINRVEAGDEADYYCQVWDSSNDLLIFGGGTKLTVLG , please?
Outgoing: 0.00621

Incoming: Value lookup for koff; key = anti-mutCALR antibody clone 140 (antibody, human IgG1, lambda, N297A, V domains shown, human IgG1 N297A variant of clone 15) VH: EVQLVQSGAEVKKPGASVKVSCKVSGYTLTELSMQWVRQAPGKGLEWMGGFDPDAGETMYAEKFQGRLTVTEDTSTDTVYMELSSLRSEDTAVYFCATSPGYDFFDYWGQGTLVTVSS VL: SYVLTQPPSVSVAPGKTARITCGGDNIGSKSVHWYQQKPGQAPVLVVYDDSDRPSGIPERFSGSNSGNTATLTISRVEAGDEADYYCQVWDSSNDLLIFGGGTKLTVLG
Outgoing: 0.00541

Incoming: Which koff is listed for anti-mutCALR antibody clone 143 (antibody, human IgG1, lambda, N297A, V domains shown, human IgG1 N297A variant of clone 15) VH: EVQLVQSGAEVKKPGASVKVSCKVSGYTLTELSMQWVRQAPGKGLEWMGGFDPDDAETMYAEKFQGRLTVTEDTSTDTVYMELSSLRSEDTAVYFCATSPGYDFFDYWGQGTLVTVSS VL: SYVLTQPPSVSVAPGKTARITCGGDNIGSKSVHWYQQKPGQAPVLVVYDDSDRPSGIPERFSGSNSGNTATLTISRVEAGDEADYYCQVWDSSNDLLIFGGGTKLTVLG ?
Outgoing: 0.00753

Incoming: Reported koff for anti-mutCALR antibody clone 71 (antibody, human IgG1, lambda, N297A, V domains shown, human IgG1 N297A variant of clone 6) VH: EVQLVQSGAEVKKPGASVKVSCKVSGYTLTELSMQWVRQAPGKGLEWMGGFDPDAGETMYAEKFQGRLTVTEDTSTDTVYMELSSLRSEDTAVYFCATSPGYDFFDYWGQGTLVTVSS VL: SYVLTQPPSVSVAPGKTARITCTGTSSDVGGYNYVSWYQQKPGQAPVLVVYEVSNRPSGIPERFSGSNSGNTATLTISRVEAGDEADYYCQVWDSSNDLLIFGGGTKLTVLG : what is it?
Outgoing: 0.0107
